What pIC50 was measured for each of the following?
Molecular target: Human Thrombocytes
Assay: Fibrinogen binding to human thrombocytes (fibrinogen binding test)
Details: 125I fibrinogen; 50% inhibition of fibrinogen binding; gel-filtered human platelets, ADP, 20 min ambient temperature; read-out: Fibrinogen binding test IC50
In simple prose, pIC50 is minus the logarithm base ten of a concentration in moles per litre.

Qu. Recall the reported pIC50 of COC(=O)CCNC(=O)c1cc2nc(-c3ccc(C(=N)N)cc3)n(C)c2cc1N(C)C(=O)OCC(C)C on Human Thrombocytes and write it down.
Ans. 4.85

Qu. Recall the reported pIC50 of NCCCn1c(-c2ccc(CN)cc2)nc2cc(C(=O)NCCC(=O)O)ccc21 [Example 17, acetate] on Human Thrombocytes and write it down.
Ans. 6.00

Qu. Recall the reported pIC50 of COC(=O)CCNC(=O)c1ccc2c(c1)nc(-c1ccc(CN)cc1)n2CCCN on Human Thrombocytes and write it down.
Ans. 5.40
